- System: PsdR-P (phosphorylated with ammonium phosphoramidate) (Lacticaseibacillus paracasei BL23)
- ASSAY_DETAILS: BLI
- SETUP_CONDITIONS: BLI (BLITz, streptavidin sensors, DNA immobilized): 50 mM Tris-HCl pH 7.4, 150 mM NaCl, 0.1% Tween 20; protein preincubated 30 min with 50 mM phosphodonor and …
MEASURED_QUANTITY: Kd (nM)
Respond with the bare value in nM.

MONOMER_SEQUENCE	SUBJECT_OF_TEST	OUTPUT_UNIT	Kd
TCACGCTTCTCATATTACGAAACTGTTAGCTCATTGTTACGCAATTCGTTGGCGTCATTTTTTCTGAAAACCTATAATGAATGTGTAAATAAAAACGTGG (double strand) [Pdlt]	PsdR-P (phosphorylated with ammonium phosphoramidate) (Lacticaseibacillus paracasei BL23)	nM	100

For the sequence CAATCATCTCGCAAACTTACATCACCTTACAAAAAGGTCAGAAAGGGTGCGAGGGGCTTGTAGATTTCCTATAATGAATAGGAATATAGACACGGAGGAC (double strand) [PmprF] , give its reported Kd. 94.8

For the sequence GTAAGCTACCTTACCAGCTTGTAAGCAACTACGAATCACTGTAAGTAGGCATGGGGCATCATCCCCGCTAAGCTAATAAATGAAAGGGGACGATCACATG (double strand) [PpsdA] , give its reported Kd. 116

For the sequence GGTAAAGAAAGACTAAAGCAGCTTACAAAGCCGTAAGTTACAAACAACCATCCGTTAGGCCATTATCAGGAAAAAGGCAGCCTAACCCGCTATCATAAAG (double strand) [PderA] , give its reported Kd. 172
